Measured values drawn from PubChem BioAssay (NCI) for this set.

System: LOX IMVI melanoma
Experiment: NCI tumour cell line growth inhibition, 48 h

| compound | test-system | TGI |
| --- | --- | --- |
| CC[C@]1(Cc2ccc(OC)c(OC)c2)C=[N+]([O-])O[C@H](OC2CCCC2(c2ccccc2)c2ccccc2)[C@@H]1OC(=O)C(C)(C)C (stereo partly drawn) | LOX IMVI melanoma | 4.18 µM |
| c1ccc2c3c([nH]c2c1)C1C2CCCCN2C(c2ccncc2)N1CC3 (stereo not drawn) | LOX IMVI melanoma | > 100 µM |
| COc1ccc(-c2cc(-c3ccco3)c(C#N)c(=O)[nH]2)cc1 | LOX IMVI melanoma | > 100 µM |
| COc1ccc(C(=O)O/N=C2/CCCCC2CN(C)C)cc1 (stereo not drawn) | LOX IMVI melanoma | > 100 µM |
| Cc1cc(C)nc(NS(=O)(=O)c2ccc(Nc3c4ccccc4nc4ccc(C(=O)Nc5ccc(S(=O)(=O)N=C(N)N)cc5)cc34)cc2)n1 | LOX IMVI melanoma | 34.4 µM |
| CSc1nc(C)c2c(n1)N(c1ccc(Cl)cc1)CC2 | LOX IMVI melanoma | > 100 µM |
| CC1CCCN1CCCOC(=O)c1ccc(OC2C=CCCC2)cc1 (stereo not drawn) | LOX IMVI melanoma | 36.7 µM |
| COc1cc(OC)cc(-c2ccc(-c3ccc(C(=N)N)cn3)s2)c1 | LOX IMVI melanoma | 3.2 µM |

----------
Test system: SW-620 colon
Experiment: NCI tumour cell line growth inhibition, 48 h
Reported GI50 values are given for each entry in this list.
value-kind: GI50

| compound | value-kind | result |
| --- | --- | --- |
| O=c1nc2[nH]c3c(-c4n[nH]c(=O)[nH]c4=O)cccc3c2n[nH]1 | GI50 | > 100000 nM |
| O=C1CCS/C(=N/S(=O)(=O)c2ccc(N3N=C4c5ccccc5CC4C3c3cccs3)cc2)N1Cc1ccccc1 (stereo not drawn) | GI50 | 24000 nM |
| CC1OC(OC2C(O[C@H]3CC[C@@]4(C)C(=CC[C@H]5[C@@H]6C[C@@H]7O[C@]8(CC[C@@H](C)CO8)[C@@H](C)[C@@H]7[C@@]6(C)CC[C@@H]54)C3)OC(CO)C(OC3OC(CO)C(O)C3O)C2O)C(O)C(O)C1O (stereo partly drawn) | GI50 | 195 nM |
| CNCc1ccc(-c2[nH]c3cc(F)cc4c3c2CCNC4=O)cc1 | GI50 | 16100 nM |
| COc1cc2c(cc1OCCCOc1ccc(-c3cc4ccccc4c4ccccc34)cc1)N=C[C@@H]1CCCN1C2=O | GI50 | 513 nM |
| CCCCC[C@@H](C/C=C/CCC(=O)NC/C(=C/Cl)[C@H]1C(=O)C(C)(C)C(=O)[C@@H](C)[C@@]1(C)O)OC | GI50 | 20800 nM |
| CCN1CCN(c2nc(NNC(=O)c3ccccc3)nc(N3CCN(C(c4ccccc4)c4ccccc4)CC3)n2)CC1 | GI50 | 2300 nM |
| C=C(Cl)[C@@](Cl)(CBr)CC[C@@H](Br)C(C)(C)Cl | GI50 | 778 nM |

----------
Test system: NCI-H23 lung
Experiment: NCI tumour cell line growth inhibition, 48 h

| compound | TGI |
| --- | --- |
| OCCCCC#Cc1ccccc1C#Cc1ccc(C(F)(F)F)cc1 | 32.4 µM |
| CCOC(=O)c1c(-c2ccccc2)c(C)cn1C | > 10 µM |
| CCOC(=O)C1C(c2ccc(OC)cc2)c2c([nH]n(-c3ccccc3)c2=O)CC1(C)O (centres undefined) | > 100 µM |
| c1ccc(-c2c(-c3[nH]c4ccccc4c3-c3ccccc3)[nH]c3ccccc23)cc1 | 6.68 µM |
| COc1cc(/C=C2\C(=O)N(C)c3ccccc32)cc(OC)c1OC | 73.1 µM |
| COc1ccc(-c2cc(-c3ccco3)c(C#N)c(=O)[nH]2)cc1 | > 100 µM |
| C=C(Cn1c2ccccc2c(=O)c2ccccc21)c1ccc(C(=O)Nc2ccccc2N)cc1 | > 100 µM |
| C#CC#CC#CC#CC#CC#CC#CC#CC[C@@H]1OC[C@@H](COC(=O)O[C@@H](C(=O)O[C@H]2C[C@@]3(O)[C@@H](OC(=O)c4ccccc4)[C@@H]4[C@]5(OC(C)=O)CO[C@@H]5C[C@H](O)[C@@]4(C)C(=O)[C@H](OC(C)=O)C(=C2C)C3(C)C)[C@@H](NC(=O)c2ccccc2)c2ccccc2)O1 | > 33.3 µM |
| COc1cc(OC)cc(-c2ccc(-c3ccc(C(=N)N)cn3)s2)c1 | 3.5 µM |
| CC(C)=Nn1cnc2c1NC(C)(C)N=C2C(N)=O | > 10 µM |
| O=C(N/N=C/c1ccc(F)cc1)c1ccc(C(F)(F)F)nc1Nc1cccc(C(F)(F)F)c1 | 11.9 µM |
| COC(=O)[C@H](Cc1cn(C)cn1)NC(=O)[C@@H](NC(=O)Nc1cc(C(F)(F)F)cc(C(F)(F)F)c1)C(C)C | > 10 µM |
| Cn1c(NC(=O)NC23CC4CC(CC(C4)C2)C3)nc2ccccc21 | > 100 µM |
| O=C(O)CCC1NC(/C(=C/c2ccccc2O)NC(=O)c2ccccc2)OC1=O (centres undefined) | > 100 µM |
| COC(=O)c1ccccc1C1CN=NC12Cc1c(C)ccc(C)c1C2=O (centres undefined) | > 100 µM |
| C[n+]1c2ccccc2c(C(=O)Nc2ccc(S(=O)(=O)Nc3ncccn3)cc2)c2ccccc21 | > 100 µM |
| COc1ccc(/C(CC2OC(=O)c3ccccc32)=N\NC(N)=O)cc1 (centres undefined) | > 100 µM |
| CCOC(=O)c1cn(CC)c2ccc3c(c2c1=O)S(=O)(=O)C=C3 | > 100 µM |
| CC1=C(CNO)C2=C(C)C3(CC3)[C@@](C)(O)C(=O)C2=C1 | 2.72 µM |

----------
Entries and their measured GI50 follow.
System: SNB-19 CNS
Test: NCI tumour cell line growth inhibition, 48 h

| molecule | GI50 |
| --- | --- |
| CC1=C(CNO)C2=C(C)C3(CC3)[C@@](C)(O)C(=O)C2=C1 | 1.81 µM |
| N/C(=N\C(N)=N\c1nc2ccccc2s1)c1cnccn1 | 3.57 µM |
| COc1ccc(-c2cc(-c3ccccc3)nc(NCCNc3ccnc4cc(Cl)ccc34)n2)cc1 | 1.77 µM |
| O=C(c1ccccc1)C(Br)C(Br)c1ccccc1 (stereo not given) | 12.7 µM |
| COc1cc2c(cc1OCCCOc1ccc(-c3cc4ccccc4c4ccccc34)cc1)N=C[C@@H]1CCCN1C2=O | 1.16 µM |

----------
Test system: A549 NSCLC
Assay: NCI tumour cell line growth inhibition, 48 h; in the data active = GI50 below about 0.43 µM; inactive = the rest
Outcome codes: yes (active), no (inactive)

| compound | label-value |
| --- | --- |
| COc1ccc(-c2cc(-c3ccccc3)nc(NCCNc3ccnc4cc(Cl)ccc34)n2)cc1 | no |
| COc1cccc(C2C(C#N)=C(N)Oc3cc4c(cc32)OCO4)c1 (stereo not given) | yes |
| CCCCC[C@@H](C/C=C/CCC(=O)NC/C(=C/Cl)[C@H]1C(=O)C(C)(C)C(=O)[C@@H](C)[C@@]1(C)O)OC | no |
| COc1ccc(Cc2nc3cc(OC)c(OC)cc3c(=O)[nH]2)cc1 | no |
| CNCc1cccc2c1OCCOCCOCCC(C)S(=O)(=O)c1ccc(cc1)-c1cnc(N)c(n1)C(=O)N2 (stereo not given) | no |
| NC(N)=N/N=C/c1c(-c2ccc(Cl)c([N+](=O)[O-])c2)nc2sc3ccccc3n12 | no |
| COc1cc2c(cc1OCCCOc1ccc(-c3cc4ccccc4c4ccccc34)cc1)N=C[C@@H]1CCCN1C2=O | no |
| NC(N)=N/N=C(/c1ccccc1)c1ccccc1F | no |
| O=C(N/N=C/c1ccc(F)cc1)c1ccc(C(F)(F)F)nc1Nc1cccc(C(F)(F)F)c1 | no |
| OCC#Cc1ccccc1C#Cc1ccc(C#Cc2ccccc2)cc1 | no |

----------
Test system: SR leukemia
Experiment: NCI tumour cell line growth inhibition, 48 h; in the data active = GI50 below about 0.43 µM; inactive = the rest
Outcome codes: active, inactive

| molecule | test-system | label-value |
| --- | --- | --- |
| COc1ccc(/C=C\c2cc(OC)c(OC)c(OC)c2)c(NS(=O)(=O)c2ccc(C(C)(C)C)cc2)c1O | SR leukemia | active |
| O=C(OC[C@@H]1CO1)c1cccc2c(=O)c3ccccc3[nH]c12 | SR leukemia | active |
| CNCc1cccc2c1OCCOCCOCCC(C)S(=O)(=O)c1ccc(cc1)-c1cnc(N)c(n1)C(=O)N2 (stereo not drawn) | SR leukemia | active |
| OCC#Cc1ccccc1C#Cc1ccc(C#Cc2ccccc2)cc1 | SR leukemia | inactive |
| C#CC#CC#CC#CC#CC#CC#CC#CC[C@@H]1OC[C@@H](COC(=O)O[C@@H](C(=O)O[C@H]2C[C@@]3(O)[C@@H](OC(=O)c4ccccc4)[C@@H]4[C@]5(OC(C)=O)CO[C@@H]5C[C@H](O)[C@@]4(C)C(=O)[C@H](OC(C)=O)C(=C2C)C3(C)C)[C@@H](NC(=O)c2ccccc2)c2ccccc2)O1 | SR leukemia | active |
| O=C(N/N=C/c1ccc(F)cc1)c1ccc(C(F)(F)F)nc1Nc1cccc(C(F)(F)F)c1 | SR leukemia | active |
| CC(=O)OCC1OC(n2c(=S)n(-c3ccccc3)c(=O)c3cc(Br)cc(Br)c32)C(OC(C)=O)C(OC(C)=O)C1OC(C)=O (stereo not drawn) | SR leukemia | inactive |
| C#Cc1cccc(NC(=O)C2CCCN(C(=O)CCl)C2)c1 (stereo not drawn) | SR leukemia | inactive |
